Biological target: Beta-2 adrenergic receptor (Cavia porcellus) (UniProt Q8K4Z4)
Sequence (Q8K4Z4 whole entry, looked up): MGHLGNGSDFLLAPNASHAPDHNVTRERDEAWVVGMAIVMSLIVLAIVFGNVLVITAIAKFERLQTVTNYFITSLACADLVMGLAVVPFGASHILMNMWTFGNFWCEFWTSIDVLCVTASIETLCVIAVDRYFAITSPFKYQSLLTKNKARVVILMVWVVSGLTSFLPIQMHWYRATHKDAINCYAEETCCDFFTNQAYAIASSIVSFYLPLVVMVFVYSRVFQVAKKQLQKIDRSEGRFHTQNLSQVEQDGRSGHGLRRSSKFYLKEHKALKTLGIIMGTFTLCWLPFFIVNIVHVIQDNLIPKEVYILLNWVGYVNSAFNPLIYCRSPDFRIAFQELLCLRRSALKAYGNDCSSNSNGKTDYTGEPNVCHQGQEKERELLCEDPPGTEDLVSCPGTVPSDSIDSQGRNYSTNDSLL
Result type: Beta2 duration (min)

{"columns": ["Molecular string", "Beta2 duration [min]"],
 "data": [
  ["CSc1cccc(CCOCCS(=O)(=O)CCCNCCc2ccc(O)c3nc(O)sc23)c1", 150],
  ["O=S(=O)(CCCOCCCc1ccccc1)CCNCCc1ccc(O)c2nc(O)sc12", 157]
]}

====

The reader will find Beta2 duration measurements below, all made with UniProt:Q8K4Z4.

For orientation, consider the following solved cases.
{"columns": ["Molecular string", "Beta2 duration"],
 "data": [
  ["O=S(=O)(CCCNCCc1ccc(O)c2nc(O)sc12)NCCOCCc1cccc(C(F)(F)F)c1", "> 180 min"],
  ["CN(CCCOCCOCCc1ccccc1)CCc1ccc(O)c2nc(O)sc12", "> 180 min"]
]}

// next entry
Qu. What value of Beta2 duration has been recorded for this entry: "Cc1ccc(CCCOCCS(=O)(=O)CCCNCCc2ccc(O)c3nc(O)sc23)s1"
Ans. > 180 min
